Biological target: HLA class I molecule
Assay: HLA class I peptide binding affinity assay (inhibition of 125I-radiolabeled probe peptide binding to purified HLA)
Set-up: species or system human
Settings: allele A02.01; read-out: Observed Affinity (IC50; (nM))
Where no end group is shown, it is not given here.
# Condition met = IC50 below 200 nM (exclusive); Condition not met = IC50 at/above 200 nM

These solved cases illustrate the format of a correct answer.
INSERT INTO results (residues, assigned_class) VALUES
  ('LLGRNSFEVC', 'Condition not met'),
  ('LVRLSSCVPV', 'Condition not met'),
  ('ALAPTLTHM', 'Condition met'),
  ('LVVVGADGV', 'Condition not met'),
  ('KLFSCLSFL', 'Condition met'),
  ('VMAYVMAGV', 'Condition met');

Query block: Could you please tell me whether IC50 recorded for LMELMAGGDL is less than 200 nM?
Result block: Condition not met

Query block: Could you please tell me whether IC50 recorded for IMQLMPFGC is less than 200 nM?
Result block: Condition not met

Query block: Could you please tell me whether IC50 recorded for NVVPLCDLL is less than 200 nM?
Result block: Condition not met

---

System: HLA Class I molecules
Test: HLA class I binding stability assay (pMHC-I complex dissociation, 125I-labeled β2m, scintillation counts)
Design: species or system human
Details: allele A02.01; pMHC-I dissociation at 37° C.
Where no end group is shown, it is not given here.
readout-type: Stability (T1/2 (h))
Output spec: scalar in h, unitless text.

Reference set, count: 5
INSERT INTO results (residues, readout_number) VALUES
  ('KGPELFPLI', 0.3),
  ('PLCDLLLEM', 0.8),
  ('CLADVLLSV', 24),
  ('PLCDLLLEML', 0.9),
  ('KLGGGQHGEV', 0.4);

Query block: // lookup Stability (T1/2 (h)) for GLLLEMLDA
Result block: 0.4

Query block: // lookup Stability (T1/2 (h)) for PLNDLLLEM
Result block: 4.2

Query block: // lookup Stability (T1/2 (h)) for IMQLMPFGC
Result block: 0.4

Query block: // lookup Stability (T1/2 (h)) for KLFSCLSFL
Result block: 14.3

Query block: // lookup Stability (T1/2 (h)) for LMELMAGGDL
Result block: 8.9

Query block: // lookup Stability (T1/2 (h)) for KVLQMDFLV
Result block: 6.4

Query block: // lookup Stability (T1/2 (h)) for ILMELMAGG
Result block: 0.5

Query block: // lookup Stability (T1/2 (h)) for PLSDLLLEM
Result block: 2.7

---

Target: HLA class I molecule
Assay: HLA class I peptide binding affinity assay (inhibition of 125I-radiolabeled probe peptide binding to purified HLA)
Set-up: species or system human
Details: allele A01.01; read-out: Observed Affinity (IC50; (nM))
Where no end group is shown, it is not given here.
# Yes = IC50 below 400 nM (exclusive); No = IC50 at/above 400 nM

These solved cases illustrate the format of a correct answer.
INSERT INTO measurements (residues, assigned_class) VALUES
  ('WMTETLFDIV', 'No'),
  ('ILDTAGLEEY', 'Yes'),
  ('GSNEVTTRY', 'No');

Query block: Could you please tell me whether IC50 recorded for LSFLSSWDY is less than 400 nM?
Result block: Yes

Query block: Could you please tell me whether IC50 recorded for CLSFLSSWDY is less than 400 nM?
Result block: No

Query block: Could you please tell me whether IC50 recorded for TGSNEVTTRY is less than 400 nM?
Result block: No

Query block: Could you please tell me whether IC50 recorded for LTSTVQLIM is less than 400 nM?
Result block: No

Query block: Could you please tell me whether IC50 recorded for TTNAFSGEY is less than 400 nM?
Result block: Yes

Query block: Could you please tell me whether IC50 recorded for YMANGSLLNY is less than 400 nM?
Result block: Yes

Query block: Could you please tell me whether IC50 recorded for MSDTTYKIY is less than 400 nM?
Result block: Yes

Query block: Could you please tell me whether IC50 recorded for ILDTAGREEY is less than 400 nM?
Result block: Yes

Query block: Could you please tell me whether IC50 recorded for ILDTAGHEEY is less than 400 nM?
Result block: Yes

Query block: Could you please tell me whether IC50 recorded for VMSDTTYKIY is less than 400 nM?
Result block: Yes

Query block: Could you please tell me whether IC50 recorded for YTTNAFSGEY is less than 400 nM?
Result block: Yes
